meta.source: patent US10383835B2

Target: Canine sEH (Canis lupus familiaris, UniProt A0A8I3NJL8)
Sequence (A0A8I3NJL8 1-556): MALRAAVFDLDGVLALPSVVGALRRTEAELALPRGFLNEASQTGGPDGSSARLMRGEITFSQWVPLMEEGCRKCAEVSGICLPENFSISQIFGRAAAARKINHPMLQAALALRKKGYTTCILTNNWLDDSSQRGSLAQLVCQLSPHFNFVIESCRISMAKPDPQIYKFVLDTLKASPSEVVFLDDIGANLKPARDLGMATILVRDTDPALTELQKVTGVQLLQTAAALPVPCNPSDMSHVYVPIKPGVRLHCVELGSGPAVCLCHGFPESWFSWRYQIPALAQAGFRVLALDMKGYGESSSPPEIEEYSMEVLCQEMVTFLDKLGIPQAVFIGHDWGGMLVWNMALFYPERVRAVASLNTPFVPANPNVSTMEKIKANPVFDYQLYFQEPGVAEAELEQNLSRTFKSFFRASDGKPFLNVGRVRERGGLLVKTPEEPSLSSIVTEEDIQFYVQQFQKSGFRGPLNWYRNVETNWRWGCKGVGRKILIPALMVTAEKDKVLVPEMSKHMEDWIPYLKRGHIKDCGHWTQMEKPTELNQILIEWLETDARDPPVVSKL
Assay: sEH Inhibitor Screen of Canine sEH
Format: biochemical
Details: [I] = 100 nM
# maps each entry to its inhibition at 0.1 µM
Kindly answer with a numeric value in %, unit omitted.

O=C1CCC(NC(=O)Nc2ccc(OC(F)(F)F)cc2)CC1 :: 51
COC(=O)c1ccc(NC2CCC(NC(=O)Nc3ccc(OC(F)(F)F)cc3)CC2)cc1 (stereo not shown) :: 49
CS(=O)(=O)NC(=O)c1ccc(O[C@H]2CC[C@H](NC(=O)Nc3ccc(OC(F)(F)F)cc3)CC2)cc1 :: 84

Input: For the compound O=C(Nc1ccc(OC(F)(F)F)cc1)Nc1ccc(Oc2ccc(C(=O)O)cc2)cc1F , what inhibition at 0.1 µM is on record?
Output: 95
